Tested on: SR leukemia
method notes: NCI tumour cell line growth inhibition, 48 h
Where a SMILES comes first, the peptide text is derived from it. The star is where a group is joined. Boc = CC(C)(C)OC(=O)*; OBn = c1ccc(CO*)cc1
measured parameter: TGI

compound | result
COC(=O)c1cc(NC(=O)CN(CCN(CC(=O)O)CC(=O)Nc2ccc(O)c(C(=O)OC)c2)CC(=O)O)ccc1O | 48.7 µM
NS(=O)(=O)c1ccc(N=Nc2nc3[nH]cnc(=S)c3[nH]2)cc1 | 1.11 µM
CC1=C2[C@@H](c3ccccc3)C3C=CC2(c2ccccc23)N(C(=O)Nc2cccc3ccccc23)C1=O (stereo partly specified) | > 100 µM
CCC(C)C(NC(=O)c1c2ccccc2nc2ccccc12)C(=O)O (stereo unspecified) | > 100 µM
Nc1nc(NCC2(CO)CC(CCc3ccccc3)C2)cc(=O)[nH]1 (stereo unspecified) | > 100 µM
O=C1c2ccccc2-n2c1nc1cc(Cl)ccc1c2=O | > 100 µM
CCOC(=O)/C(=C/c1ccc(Cl)cc1)N(CC)CC | > 100 µM
COc1ccc2c([nH]c3cc(O)c(C)cc32)c1CC=C(C)C | > 25 µM
CS(=O)(=O)c1ccc(-c2[nH]c3ccc(F)cc3c2/C=N/NC(N)=S)cc1 | 32.8 µM
COc1cc(C2C(C(=O)OCc3ccccc3)=C(C)NC(C)=C2C(=O)OCc2ccccc2)cc(OC)c1OC | > 100 µM
Cc1ccc(S(=O)(=O)NC(=O)C#CCOC2CCCCO2)cc1 (stereo unspecified) | > 100 µM
CC(=O)O[C@H]1CC[C@@]2(C)C(=CC[C@H]3[C@@H]4C/C(=C\c5ccncc5)[C@H](OC(C)=O)[C@@]4(C)CC[C@@H]32)C1 | 9.19 µM
C=CCCCCn1c2ccccc2c2c(C)c3c[n+](C)ccc3c(C)c21 | 1.1 µM
N#C/C(=C\c1ccc([N+](=O)[O-])s1)c1nc2cc(Br)ccc2s1 | 1.77 µM
Cc1cn(CCCCOC(=O)NC(CCCNC(N)=O)C(=O)O)c(=O)[nH]c1=O (stereo unspecified) | > 100 µM
Clc1ccc2c(Cl)nc(-c3ccccc3)nc2c1 | > 100 µM
Nc1nc(Cl)nc2c1ncn2C1CCC(COP(=O)(O)OP(=O)(O)OP(=O)(O)O)O1 (stereo unspecified) | > 100 µM
O=C1C=C(NCCc2cc(Cl)c(O)c(Cl)c2)C(=O)c2[nH]cnc21 | > 100 µM
Cc1nc2sc(C(=O)Nc3cccc(Cl)c3C)c(N)c2cc1C(=O)c1ccccc1 | 16.9 µM
N#CC(C#N)=Cc1ccc(Oc2ccccc2)cc1 | > 100 µM
C[N+]1(CCCC[N+]2(C)CCCCCCC2)CCCCCCC1 | > 100 µM
COc1ccc2c(c1)c(-c1nc(-c3cn(C)c4ncccc34)cs1)cn2CCCCN1CCOCC1 | 1.98 µM
CCN(CC)C(=O)N[C@@H](Cc1ccccc1)C(=O)NC | > 100 µM
Nc1ccc(-c2nc3ccccc3s2)cc1F | 53.9 µM
COc1cc(S(=O)(=O)Nc2ccc(-c3csc(/N=C\C=C\c4ccccc4)n3)cc2)ccc1Cl | > 100 µM
Cc1ccc(S(=O)(=O)c2ccsc2NC(=O)c2ccccc2)cc1 | > 100 µM
CC1=C2c3ccccc3N(S(=O)(=O)c3ccccc3)[C@H]2[C@H](C(=O)N2C3CC4CC[C@@]3(CS2(=O)=O)C4(C)C)CC1 (stereo partly specified) | > 100 µM
CN(C)c1ccc(/C=C2\N=C(c3ccccc3)N(/N=C3\C(=O)Nc4ccccc43)C2=O)cc1 | > 100 µM
Cc1ccc(Nc2cc(=O)[nH]c(=O)[nH]2)cc1CS | > 100 µM
COc1cc(/C=N/Nc2ncnc3c2cnn3Cc2ccccc2)ccc1O | > 25 µM
O=C(Nn1c(-c2ccccc2)nc2ccccc2c1=O)c1ccc(O)cc1 | > 100 µM
O=C(/C=C/c1cccs1)c1ccc(Cl)s1 | 63.2 µM
O=C(Nc1cccc(-n2cc(-c3ccncc3)c(-c3ccc(O)c(Cl)c3)n2)c1)c1ccc(N2CCOCC2)c(C(F)(F)F)c1 | > 50 µM
O=C1c2cscc2C(=O)c2c(OCc3ccccc3)ccc(OCc3ccccc3)c21 | > 100 µM
CCOC(=O)NN(C(=O)OCC)C(C(=O)c1ccc(Cl)cc1)=C1NCCN1 | > 100 µM
O=C1CSC(c2ccccc2[N+](=O)[O-])N1c1ccc(-n2c(-c3ccccc3)nc3ccccc3c2=O)cc1 (stereo unspecified) | > 100 µM
O=C(c1ccncc1)N1CCN(C2=NS(=O)(=O)c3ccccc3N2c2ccccc2)CC1 | 2.42 µM
Cc1cc(=O)[nH]c(NN2C(Cl)C(=O)C2c2c(O)ccc3ccccc23)n1 (stereo unspecified) | 72.7 µM
N#Cc1nc(NC(=O)c2ccccc2)sc1N | > 10 µM
Nc1ncnc2c1c(C(=O)NO)cn2C1OC(CO)C(O)C1O (stereo unspecified) | 1.88 µM
CC(C)C(NC(=O)CNC(=O)C1CCCN1C(=O)C(NC(=O)OC(C)(C)C)C(C)C)C(=O)NCC(=O)OCc1ccccc1 (stereo unspecified) (Boc-VPGVG-OBn; configuration not given here) | > 100 µM
